- Tested on: MFc7 mouse renal myofibroblasts
- test protocol: MFc7 bioassay
- Type: cell-based
- applied conditions: EC50 of wild type BMP7 protein/EC50 of the variant; single amino acid change (Table 4)
result type: Average Relative Potency
// no unit string in output, number only

The examples below pair each entry with its known result.
- molecule: "I94F: SEQ ID NO: 2 having the single amino acid mutation I94F (protein, listed as Homo sapiens) STGSKQRSQNRSKTPKNQEALRMANVAENSSSDQRQACKKHELYVSFRDLGWQDWIIAPEGYAAYYCEGECAFPLNSYMNATNHAIVQTLVHFFNPETVPKPCCAPTQLNAISVLYFDDSSNVILKKYRNMVVRACGCH"
  Average Relative Potency: 7.5
- molecule: "D33M: SEQ ID NO: 2 having the single amino acid mutation D33M (protein, listed as Homo sapiens) STGSKQRSQNRSKTPKNQEALRMANVAENSSSMQRQACKKHELYVSFRDLGWQDWIIAPEGYAAYYCEGECAFPLNSYMNATNHAIVQTLVHFINPETVPKPCCAPTQLNAISVLYFDDSSNVILKKYRNMVVRACGCH"
  Average Relative Potency: 3.3

Next up:
Fill in reported Average Relative Potency for this entry: Y65G: SEQ ID NO: 2 having the single amino acid mutation Y65G (protein, listed as Homo sapiens) STGSKQRSQNRSKTPKNQEALRMANVAENSSSDQRQACKKHELYVSFRDLGWQDWIIAPEGYAAGYCEGECAFPLNSYMNATNHAIVQTLVHFINPETVPKPCCAPTQLNAISVLYFDDSSNVILKKYRNMVVRACGCH
1.3
